# TARGET: T1, human EGFRvIII-hFc protein (human, UniProt P00533 25-645)
# T1 construct: extracellular domain; also called immunogen A; hFc-tagged EGFRvIII protein; not shown: human IgG Fc fragment (hFc) of the pCpC vector
# ASSAY DETAILS: ELISA, EGFRvIII-hFc coated
The reader will find reported EC50 values listed item by item below.
Value expressed in pM; do not type the unit.

Humanized antibody h63A10A7-19 (antibody, human IgG1, V domains shown, also called VH-g6/VL-g4) VH: QVQLVQSGAEVKKPGASVKVSCKASGYTFISFTMHWVKQRPGQGLEWMGYINPNSGYTKYNQKFKDKATMTRDTSTSTVYMELSSLRSEDTAVYYCTRGGGRGFAYWGQGTLVTVSS VL: DILMTQSPSSLSASVGDRVTITCHASQDINSNIGWLQQKPGKSFKALIYHGTNLEDGVPSRFSGSGSGADYTLTISSLQPEDFATYYCVQYAQFPFTFGQGTKLEIK    170
Humanized antibody h63A10A7-17 (antibody, human IgG1, V domains shown, also called VH-g4/VL-g4) VH: QVQLVQSGAEVKKPGASVKVSCKASGYTFISFTMHWVKQRPGQGLEWIGYINPNSGYTKYNQKFKDKATLTRDTSTSTVYMELSSLRSEDTAVYYCTRGGGRGFAYWGQGTLVTVSS VL: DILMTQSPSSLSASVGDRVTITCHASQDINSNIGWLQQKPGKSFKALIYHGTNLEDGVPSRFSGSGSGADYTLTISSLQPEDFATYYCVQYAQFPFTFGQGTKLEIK    10

What the record says about Humanized antibody h63A10A7-39 (antibody, human IgG1, V domains shown, also called VH-g8/VL-g3) VH: QVQLVQSGAEVKKPGASVKVSCKASGYTFISFTMHWVKQRPGQGLEWIGYINPNSGYTKYNQKFKDRVTLTRDTSTSTVYMELSSLRSEDTAVYYCTRGGGRGFAYWGQGTLVTVSS VL: DIQMTQSPSSLSASVGDRVTITCHASQDINSNIGWLQQKPGKSFKALIYHGTNLEDGVPSRFSGSGSGADYTLTISSLQPEDFATYYCVQYAQFPFTFGQGTKLEIK : EC50 is 240

The value of EC50 measured for the binder Humanized antibody h63A10A7-25 (antibody, human IgG1, V domains shown, also called VH-g4/VL-g7) VH: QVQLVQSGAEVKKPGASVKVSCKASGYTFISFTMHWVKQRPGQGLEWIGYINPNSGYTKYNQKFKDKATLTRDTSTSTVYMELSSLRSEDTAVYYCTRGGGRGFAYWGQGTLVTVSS VL: DILMTQSPSSLSASVGDRVTITCHASQDINSNIGWYQQKPGKSFKALIYHGTNLEDGVPSRFSGSGSGADYTLTISSLQPEDFATYYCVQYAQFPFTFGQGTKLEIK turned out to be 170

GET /value?item= Chimeric antibody 75G7 (antibody, human IgG1, V domains shown, also called c75G7C6; chimeric antibody c75G7C6) VH: EVQLQQSGPELVKPGASVKIPCKASGYTFTDYNMDWVKQSHGKSLEWIGDINPNNGDTIYNQKFKGKATLTVDKSSSTAYMELRSLTSEDTAVYYCARGDYDGYYPVYYAMDYWGQGTSVTVSS VL: ENVLTQSPAIMSASPGEKVTMTCRASSSVSSSYLHWYQQKSGASPKLWIFSTSNLAAGVPARFSGSGSGTSYSLTVSSVEAEDAATYYCQQYSGYPLTFGAGTKLELK &field=EC50 returns 500

Memo: Humanized antibody h75G7C6-14 (antibody, human IgG1, V domains shown, also called VH-g2/VL-g1) VH: QVQLVQSGAEVKKPGASVKVSCKASGYTFTDYNMDWVKQAPGQGLEWIGDINPNNADTIYNQKFKGRVTLTVDKSTSTVYMELSSLRSEDTAVYYCARGDYDGYYPVYYAMDYWGQGTTVTVSS VL: ENVLTQSPATLSLSPGERATLSCRASSSVSSSYLHWYQQKPGQAPRLLIFSTSNLAAGIPARFSGSGSGTDYTLTISSLEPEDFAVYYCQQYSGYPLTFGGGTKVEIK , reported EC50: 320

Reported EC50 for Chimeric antibody 63A10 (antibody, human IgG1, V domains shown, also called c63A10A7; chimeric antibody c63A10A7) VH: QVQLQQSGAELARPGASVKMSCKASGYTFISFTMHWVKQRPGQGLEWIGYINPNSGYTKYNQKFKDKATLTAGQSSSTAYMQLSSLTSEDSAVYYCTRGGGRGFAYWGQGTLVTVSA VL: DILMTQSPSSMSVSLGDTVTITCHASQDINSNIGWLQQKPGKSFKALIYHGTNLEDGVPSRFSGSGSGADYSLTISSLESEDFADYYCVQYAQFPFTFGSGTKLEIK was 220

For reference, reported EC50 for Humanized antibody h63A10A7-26 (antibody, human IgG1, V domains shown, also called VH-g4/VL-g8) VH: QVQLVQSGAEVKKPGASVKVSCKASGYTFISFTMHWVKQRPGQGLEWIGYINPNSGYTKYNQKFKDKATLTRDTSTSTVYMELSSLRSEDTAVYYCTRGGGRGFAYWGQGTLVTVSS VL: DILMTQSPSSLSASVGDRVTITCHASQDINSNIGWYQQKPGKSFKALIYHGTNLEDGVPSRFSGSGSGADFTLTISSLQPEDFATYYCVQYAQFPFTFGQGTKLEIK stands at 160

Given item Humanized antibody h75G7C6-13 (antibody, human IgG1, V domains shown, also called VH-g2/VL-g0) VH: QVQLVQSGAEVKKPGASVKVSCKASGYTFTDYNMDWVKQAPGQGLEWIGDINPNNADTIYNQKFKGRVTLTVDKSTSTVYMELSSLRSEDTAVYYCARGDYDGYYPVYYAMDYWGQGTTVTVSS VL: EIVLTQSPATLSLSPGERATLSCRASSSVSSSYLHWYQQKPGQAPRLLIYSTSNLAAGIPARFSGSGSGTDFTLTISSLEPEDFAVYYCQQYSGYPLTFGGGTKVEIK , the value recorded as its EC50 is 480

The value of EC50 measured for the binder Humanized antibody h75G7C6-10 (antibody, human IgG1, V domains shown, also called VH-g1/VL-g1) VH: QVQLVQSGAEVKKPGASVKVSCKASGYTFTDYNMDWVRQAPGQGLEWIGDINPNNADTIYNQKFKGRVTLTVDTSTSTVYMELSSLRSEDTAVYYCARGDYDGYYPVYYAMDYWGQGTTVTVSS VL: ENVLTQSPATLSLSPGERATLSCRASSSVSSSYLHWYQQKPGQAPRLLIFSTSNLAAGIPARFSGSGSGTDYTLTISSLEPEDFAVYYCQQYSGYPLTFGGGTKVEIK turned out to be 660
